Molecular target: T1, IL-6R on human myeloma U266B1 cells (human, UniProt P08887 20-468)
T1 sequence (looked up): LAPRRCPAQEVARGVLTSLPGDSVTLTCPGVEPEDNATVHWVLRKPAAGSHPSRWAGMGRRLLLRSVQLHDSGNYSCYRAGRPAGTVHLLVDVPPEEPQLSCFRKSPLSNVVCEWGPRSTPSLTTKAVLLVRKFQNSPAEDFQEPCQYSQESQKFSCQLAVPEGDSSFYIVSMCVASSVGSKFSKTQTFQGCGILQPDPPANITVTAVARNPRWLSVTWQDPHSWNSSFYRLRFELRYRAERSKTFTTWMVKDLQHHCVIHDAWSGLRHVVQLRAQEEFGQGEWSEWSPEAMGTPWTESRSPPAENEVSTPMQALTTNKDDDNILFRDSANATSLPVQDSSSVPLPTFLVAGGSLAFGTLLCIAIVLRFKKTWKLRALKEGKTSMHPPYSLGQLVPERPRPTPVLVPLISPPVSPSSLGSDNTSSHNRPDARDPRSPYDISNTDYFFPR
Assay: cell-based or functional assay
measured.attribute: TF-1 proliferation IC50 (µg/mL)
Return type: number; implicit unit µg/mL.

{"binder": "humanized clone #36 anti-IL-6R antibody (antibody, human IgG1, kappa, V domains shown, Humanized VH cloned into human IgG1 CH vector, humanized VK into human CK vector; also called Humanized 36; humanized 36) VH: EVQLVESGGGLVQPGGSLRLSCAVSGFSLSSYYMSWVRQAPGKGLEWIGITTTSTNTFYASWAKGRFTISKDSSKNTVYLQMNSPRAEDTAVYFCARYGGNSAYYAFSLWGQGTLVTVSS VL: DIQMTQSPSSLSASVGDRVTISCQSSQSVYNNNYLAWFQQKPGKPPKLLIYGASNLASGVPSRFSGSGSGTQFTLTISSLQPEDVATYYCQGYYNGVIFVFGGGTKVEIKR", "TF-1 proliferation IC50, µg/mL": 0.181}
{"binder": "clone 51 rabbit anti-IL-6R antibody (antibody, V domains shown) VH: QSVEESGGRLVTPGTPLTLTCTASGFDISSYSLQWVRQSPGKGLEYIGFIRPDGSAHYATWAKGRFTISKTSSTTVDLKMTSLTTEDTATYFCARDDISSDYFPNLWGPGTLVTVSS VL: QVLTQTPSPVSAAVGGTVTISCQASESVYNKNNLAWYQQKPGQPPKLLIYDASDLASGVSSRFKGSGSGTQFTLTISDLECADAATYYCAGGGSGNVYDFGGGTEVVVK", "TF-1 proliferation IC50, µg/mL": 0.154}

// lookup TF-1 proliferation IC50 for clone 36 rabbit anti-IL-6R antibody (antibody, V domains shown) VH: QSVEESGGRLVTPGTPLTLTCTVSGFSLSSYYMSWVRQAPGKGLEWIGITTTSTNTFYASWAKGRFTISKTSATVDLKITSPTIEDTATYFCARYGGNSAYYAFSLWGQGTLVTVSS VL: QVLTQTASSVSAAVGGTVTISCQSSQSVYNNNYLAWFQQKPGQPPKLLIYGASNLASGVPSRFKGSGSGTQFTLTISDLECDNAATYYCQGYYNGVIFVFGGGTEVVVK 0.163

// lookup TF-1 proliferation IC50 for humanized clone #51 anti-IL-6R antibody (antibody, human IgG1, kappa, V domains shown, Humanized VH cloned into human IgG1 CH vector, humanized VK into human CK vector; also called Humanized 51; humanized 51) VH: EVQLVESGGGLVQPGGSLRLSCAASGFDISSYSLQWVRQSPGKGLEYIGFIRPDGSAHYATWAKGRFTISKDSSKNTVYLQMNSLRAEDTAVYFCARDDISSDYFPNLWGPGTLVTVSS VL: DIQMTQSPSTLSASVGDRVTISCQASESVYNKNNLAWYQQKPGKPPKLLIYDASDLASGVPSRFSGSGSGTQFTLTISSLQPDDFATYYCAGGGSGNVYDFGGGTKVEIKR 1.06

Origin of measurements: patent US20120225060A1
